target: T1, Peptide B (human PAR-2), C-terminal biotinylated (Human, not fully specified); test: peptide ELISA
T1 construct: also called Peptide B C-Term
T1 peptide: SLIGKVDGTSHVTGGGGGS-biotin
Where no end group is shown, it is not given here.
Let's look at some binders and their measured OD450.

>  <BINDER>
H2M588N (antibody, V domains shown, chimeric: human variable, mouse constant domains) VH: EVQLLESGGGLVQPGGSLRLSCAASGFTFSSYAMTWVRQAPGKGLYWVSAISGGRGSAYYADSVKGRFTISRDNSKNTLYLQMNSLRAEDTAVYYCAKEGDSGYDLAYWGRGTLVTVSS VL: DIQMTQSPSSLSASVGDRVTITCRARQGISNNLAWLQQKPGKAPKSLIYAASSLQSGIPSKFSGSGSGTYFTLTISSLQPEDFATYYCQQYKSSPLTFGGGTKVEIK

>  <OD450>
1 to 4 od

$$$$
>  <BINDER>
H1M619N (antibody, V domains shown, chimeric: human variable, mouse constant domains) VH: EVQLVESGGGLVQAGRSLRLSCAASGFTFDDYAMHWVRQAPGKGLEWVSGISWNSGSRGYADSVKGRFTISRDNAKNSLHLQMYSLRAEDTALYYCAKENWSFDYWGQGTLVTVSS VL: DIVMTQTPLSSPVTLGQPASISCRSSQSLVHSDGNTYLSWLQQRPGQPPRLLIYKISYRFSGVPDRFSGSGAGTDFTLKISRVATEDVGVYYCMQATQLPYTFGQGTKLEIK

>  <OD450>
0 to 0.09 od

$$$$
>  <BINDER>
H1M616N (antibody, V domains shown, chimeric: human variable, mouse constant domains) VH: EVQLVESGGGLAQPGRSLRVSCSASGFNFDDYAMHWVRQAPGKGLEWVSGISWNSGSRGYADSVKGRFTISRDNAKNSLYLQMNSLRAEDTALYYCVKENWAFEYWGQGTLVTVSS VL: DIVMTQTPLSSPVTLGQPASISCRSSHSLVHSDGSTYLSWLQQRPGQPPRLLIYKISNRFSGVPDRFSGSGAGTDFTLKISRVEAEDVGLYYCMQATQFPYTFGQGTKLEIK

>  <OD450>
0 to 0.09 od

$$$$
